tested on: 786-0 complex spheroid viability; test: Anticancer human tumor 786-0 cell line growth inhibition; conditions: second compound 1 µM; first compound 0.3 µM; hits give low values;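 further: spheroids exposed to agents for seven days before readout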
I'd appreciate it if you could label each record using viability, T/C and these ranges: lo (below 20%), med (20% to below 90%), hi (90% or more)

CCc1c2c(nc3ccc(O)cc13)-c1cc3c(c(=O)n1C2)COC(=O)[C@]3(O)CC + NC1CC1c1ccc(-c2cccc(O)c2)cc1 :: lo

query: Category of CCc1c2c(nc3ccc(O)cc13)-c1cc3c(c(=O)n1C2)COC(=O)[C@]3(O)CC + NC1CCC(NC2CC2c2ccccc2)CC1 :
result: lo

query: Sort into band: CCN(c1cc(-c2ccc(CN3CCOCC3)cc2)cc(C(=O)NCc2c(C)cc(C)[nH]c2=O)c1C)C1CCOCC1 + NC1CCC(NC2CC2c2ccccc2)CC1
result: hi

query: Please let me know in which category the item COc1cc(C2c3cc4c(cc3C(OC3OC5COC(C)OC5C(O)C3O)C3COC(=O)C23)OCO4)cc(OC)c1O (stereo unspecified) + NC1CCC(NC2CC2c2ccccc2)CC1 belongs.
result: med

query: Which of the defined bands does the recorded viability, T/C of Nc1ccn(C2OC(CO)C(O)C2(F)F)c(=O)n1 (stereo unspecified) + NC1CCC(NC2CC2c2ccccc2)CC1 sit within?
result: lo

query: Looking at NS(=O)(=O)OCC1CC(n2ccc3c(NC4CCc5ccccc54)ncnc32)CC1O (stereo unspecified) + NC1CCC(NC2CC2c2ccccc2)CC1 , which class would you pick?
result: lo

query: Looking at Nc1ncn(C2CC(O)C(CO)S2)c(=O)n1 (stereo unspecified) + NC1CCC(NC2CC2c2ccccc2)CC1 , which class would you pick?
result: med

query: Class? Entry: Nc1ccn(C2OC(CO)C(O)C2(F)F)c(=O)n1 (stereo unspecified) + NC1CC1c1ccc(-c2cccc(O)c2)cc1
result: lo

query: Into which category would you place Nc1ccccc1NC(=O)c1ccc(CNC(=O)OCc2cccnc2)cc1 + NC1CCC(NC2CC2c2ccccc2)CC1 ?
result: hi

====

tested on: 786-0 complex spheroid viability; assay: Anticancer human tumor 786-0 cell line growth inhibition; conditions: second compound 10 µM; first compound 0.000949 µM; active means viability on the fitted dose curve at most 10% of control; inactive means the rest;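 further: spheroids exposed to agents for seven days before readout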
In this exercise, the only acceptable responses are active, inactive

Nc1ccn(C2OC(CO)C(O)C2(F)F)c(=O)n1 (stereo unspecified) + NC1CC1c1ccc(-c2cccc(O)c2)cc1 :: active
Nc1ncn(C2CC(O)C(CO)S2)c(=O)n1 (stereo unspecified) + NC1CC1c1ccc(-c2cccc(O)c2)cc1 :: inactive
Nc1ccn(C2OC(CO)C(O)C2(F)F)c(=O)n1 (stereo unspecified) + NC1CCC(NC2CC2c2ccccc2)CC1 :: active

query: Short answer needed: outcome of this test for CCc1c2c(nc3ccc(O)cc13)-c1cc3c(c(=O)n1C2)COC(=O)[C@]3(O)CC + NC1CC1c1ccc(-c2cccc(O)c2)cc1 ?
result: active

query: Field: outcome | Entry: Nc1ncn(C2CC(O)C(CO)S2)c(=O)n1 (stereo unspecified) + NC1CCC(NC2CC2c2ccccc2)CC1
result: inactive

query: What outcome does the record of this test show for CCc1c2c(nc3ccc(O)cc13)-c1cc3c(c(=O)n1C2)COC(=O)[C@]3(O)CC + NC1CCC(NC2CC2c2ccccc2)CC1 ?
result: active

====

Test system: 786-0 complex spheroid viability
Experiment: Anticancer human tumor 786-0 cell line growth inhibition;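 further: spheroids exposed to agents for seven days before readout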
Settings: second compound 10 µM; first compound 0.00316 µM; hits give low values
Excerpt: Multicellular complex tumor spheroid response to LSD1 Inhibitor Iadademstat in combination with a variety of drugs and investigational agents in selected tumor cell lines The current study was undertaken to assess response to LSD1 inhibitors in combination with standard-of-care drugs and investigational agents in solid tumor complex spheroid models as well as in the K-562 leukemia. […] Compounds. […] If the clinical Cmax for an agent had not been determined, the highest concentration tested was 10 microM. […]
Items are presented alongside their recorded viability, T/C.
I only need the number, in %, no unit after it.

Solved cases below.
O=C(C=Cn1cnc(-c2cc(C(F)(F)F)cc(C(F)(F)F)c2)n1)NNc1cnccn1 + NC1CC1c1ccc(-c2cccc(O)c2)cc1 :: 108
CC(C)CC(NC(=O)CNC(=O)c1cc(Cl)ccc1Cl)B1OC(=O)CC(CC(=O)O)(C(=O)O)O1 (stereo unspecified) + NC1CC1c1ccc(-c2cccc(O)c2)cc1 :: 84
CC1COCCN1c1cc(-c2ccnn2C)c2ccnc(-c3ccn[nH]3)c2n1 (stereo unspecified) + NC1CC1c1ccc(-c2cccc(O)c2)cc1 :: 103
CC(C)CC(NC(=O)CNC(=O)c1cc(Cl)ccc1Cl)B1OC(=O)CC(CC(=O)O)(C(=O)O)O1 (stereo unspecified) + NC1CCC(NC2CC2c2ccccc2)CC1 :: 82.1
CC[C@@]1(O)C(=O)OCc2c1cc1n(c2=O)Cc2cc3c(CN(C)C)c(O)ccc3nc2-1 + NC1CCC(NC2CC2c2ccccc2)CC1 :: 50.3

query: # query: viability, T/C of entry Cn1ncnc1C1c2n[nH]c(=O)c3cc(F)cc(c23)NC1c1ccc(F)cc1 (stereo unspecified) + NC1CC1c1ccc(-c2cccc(O)c2)cc1
result: 84.3

query: What does the data say about its viability, T/C? Entry: O=C(C=Cn1cnc(-c2cc(C(F)(F)F)cc(C(F)(F)F)c2)n1)NNc1cnccn1 + NC1CCC(NC2CC2c2ccccc2)CC1
result: 74

query: Would you mind telling me what viability, T/C value was observed for COc1cc(Nc2ncc3c(n2)-c2ccc(Cl)cc2C(c2c(F)cccc2OC)=NC3)ccc1C(=O)O + NC1CCC(NC2CC2c2ccccc2)CC1 ?
result: 80.2

query: Entry COc1cc(Nc2ncc3c(n2)-c2ccc(Cl)cc2C(c2c(F)cccc2OC)=NC3)ccc1C(=O)O + NC1CC1c1ccc(-c2cccc(O)c2)cc1 has what viability, T/C?
result: 84.6

query: What value of viability, T/C has been recorded for this entry: Cn1ncnc1C1c2n[nH]c(=O)c3cc(F)cc(c23)NC1c1ccc(F)cc1 (stereo unspecified) + NC1CCC(NC2CC2c2ccccc2)CC1
result: 91.5

query: I have this compound here, CC(C)CC(NC(=O)C(Cc1ccccc1)NC(=O)c1cnccn1)B(O)O (stereo unspecified) + NC1CCC(NC2CC2c2ccccc2)CC1 , and I need its recorded viability, T/C.
result: 24

query: # lookup: viability, T/C of CC[C@@]1(O)C(=O)OCc2c1cc1n(c2=O)Cc2cc3c(CN(C)C)c(O)ccc3nc2-1 + NC1CC1c1ccc(-c2cccc(O)c2)cc1
result: 61

query: If you can, please state the reported viability, T/C value of Nc1ncn(C2CC(O)C(CO)O2)c(=O)n1 (stereo unspecified) + NC1CC1c1ccc(-c2cccc(O)c2)cc1 .
result: 108

query: Entry CC1COCCN1c1cc(-c2ccnn2C)c2ccnc(-c3ccn[nH]3)c2n1 (stereo unspecified) + NC1CCC(NC2CC2c2ccccc2)CC1 has what viability, T/C?
result: 77.4

query: // query viability, T/C value for entry Nc1ncn(C2CC(O)C(CO)O2)c(=O)n1 (stereo unspecified) + NC1CCC(NC2CC2c2ccccc2)CC1
result: 79.2

query: Which measured viability, T/C value corresponds to CC(C)CC(NC(=O)C(Cc1ccccc1)NC(=O)c1cnccn1)B(O)O (stereo unspecified) + NC1CC1c1ccc(-c2cccc(O)c2)cc1 ?
result: 32.9

====

tested on: 786-0 complex spheroid viability; assay: Anticancer human tumor 786-0 cell line growth inhibition; details: second compound 0.316 µM; first compound 3 µM; hits give low values;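 further: spheroids exposed to agents for seven days before readout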
Mark each entry yes (1) if its viability, T/C sits below 10%, and no (0) for all others.

Nc1ccccc1NC(=O)c1ccc(CNC(=O)OCc2cccnc2)cc1 + NC1CCC(NC2CC2c2ccccc2)CC1 :: no (0)
NS(=O)(=O)OCC1CC(n2ccc3c(NC4CCc5ccccc54)ncnc32)CC1O (stereo unspecified) + NC1CCC(NC2CC2c2ccccc2)CC1 :: yes (1)
CCN(c1cc(-c2ccc(CN3CCOCC3)cc2)cc(C(=O)NCc2c(C)cc(C)[nH]c2=O)c1C)C1CCOCC1 + NC1CCC(NC2CC2c2ccccc2)CC1 :: no (0)
COc1cc(C2c3cc4c(cc3C(OC3OC5COC(C)OC5C(O)C3O)C3COC(=O)C23)OCO4)cc(OC)c1O (stereo unspecified) + NC1CCC(NC2CC2c2ccccc2)CC1 :: yes (1)

Let's switch to this molecule now.
query: Would you kindly verify if viability, T/C of CCN(c1cc(-c2ccc(CN3CCOCC3)cc2)cc(C(=O)NCc2c(C)cc(C)[nH]c2=O)c1C)C1CCOCC1 + NC1CC1c1ccc(-c2cccc(O)c2)cc1 is strictly less than 10%?
result: no (0)

====

tested on: 786-0 complex spheroid viability; experiment: Anticancer human tumor 786-0 cell line growth inhibition; conditions: second compound 0.1 µM; first compound 0.0949 µM; active means viability on the fitted dose curve at most 10% of control; inactive means the rest;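 further: spheroids exposed to agents for seven days before readout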
Hello, when you answer, please use one of the following outcomes: active, inactive

Below, 3 molecules whose answers are already recorded.
NS(=O)(=O)OCC1CC(n2ccc3c(NC4CCc5ccccc54)ncnc32)CC1O (centres undefined) + NC1CC1c1ccc(-c2cccc(O)c2)cc1 :: inactive
NS(=O)(=O)OCC1CC(n2ccc3c(NC4CCc5ccccc54)ncnc32)CC1O (centres undefined) + NC1CCC(NC2CC2c2ccccc2)CC1 :: inactive
O=C(C=Cc1cccc(S(=O)(=O)Nc2ccccc2)c1)NO + NC1CCC(NC2CC2c2ccccc2)CC1 :: inactive

query: So what was the verdict on Nc1ccn(C2OC(CO)C(O)C2(F)F)c(=O)n1 (centres undefined) + NC1CC1c1ccc(-c2cccc(O)c2)cc1 in this test?
result: active

query: Called result for Nc1ncn(C2CC(O)C(CO)S2)c(=O)n1 (centres undefined) + NC1CCC(NC2CC2c2ccccc2)CC1
result: inactive

query: Answer briefly: the call reported for Nc1ccn(C2OC(CO)C(O)C2(F)F)c(=O)n1 (centres undefined) + NC1CCC(NC2CC2c2ccccc2)CC1 in this assay.
result: active

query: Please indicate how the test categorized COc1cc(C2c3cc4c(cc3C(OC3OC5COC(C)OC5C(O)C3O)C3COC(=O)C23)OCO4)cc(OC)c1O (centres undefined) + NC1CCC(NC2CC2c2ccccc2)CC1 .
result: inactive

query: Test call, this molecule: Nc1ccccc1NC(=O)c1ccc(CNC(=O)OCc2cccnc2)cc1 + NC1CCC(NC2CC2c2ccccc2)CC1
result: inactive

query: Status in this test for CCc1c2c(nc3ccc(O)cc13)-c1cc3c(c(=O)n1C2)COC(=O)[C@]3(O)CC + NC1CC1c1ccc(-c2cccc(O)c2)cc1 ?
result: active
